Target: furin, P09958;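 further: purified furin at 1:10 enzyme:substrate in 50 mM HEPES pH 7.5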
Sequence (P09958 whole entry): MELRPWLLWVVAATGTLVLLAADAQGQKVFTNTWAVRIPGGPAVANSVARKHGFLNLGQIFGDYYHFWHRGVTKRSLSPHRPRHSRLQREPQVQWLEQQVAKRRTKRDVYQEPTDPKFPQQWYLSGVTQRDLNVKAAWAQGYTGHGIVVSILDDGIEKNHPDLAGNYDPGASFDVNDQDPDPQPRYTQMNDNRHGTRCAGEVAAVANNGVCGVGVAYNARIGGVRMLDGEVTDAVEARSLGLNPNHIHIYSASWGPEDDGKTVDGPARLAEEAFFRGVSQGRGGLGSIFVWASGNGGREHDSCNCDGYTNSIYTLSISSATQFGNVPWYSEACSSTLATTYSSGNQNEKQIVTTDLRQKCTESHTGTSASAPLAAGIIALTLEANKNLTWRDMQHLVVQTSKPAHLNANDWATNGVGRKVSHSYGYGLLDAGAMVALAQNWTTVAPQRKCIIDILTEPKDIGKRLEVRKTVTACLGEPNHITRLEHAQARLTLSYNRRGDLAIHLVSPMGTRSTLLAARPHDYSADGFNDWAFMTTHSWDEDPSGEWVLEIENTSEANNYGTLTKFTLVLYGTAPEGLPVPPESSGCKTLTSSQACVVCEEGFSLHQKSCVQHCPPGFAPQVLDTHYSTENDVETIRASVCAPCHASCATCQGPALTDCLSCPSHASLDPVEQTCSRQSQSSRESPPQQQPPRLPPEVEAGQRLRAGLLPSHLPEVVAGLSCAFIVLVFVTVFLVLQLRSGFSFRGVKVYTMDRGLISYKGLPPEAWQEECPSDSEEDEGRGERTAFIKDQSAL
Assay: furin cleavage Z-score vs untreated control; higher = more cleavage, active = 3.5 or more, inactive = 1 or less, 8 variable residues between constant flanks
Details: 7.5 min
This is one part of the list. How many sequences the whole screen found active is unknown.
The reply should be one of these categories: true (1) for active, false (0) for inactive

Please review the following examples before continuing.
In [3]: df
Out[3]:
              primary_sequence      class
0   CALALPQRAYAGNASASA [HC561]  false (0)
1  CAERHRQTRSAGNASASA [FS-763]   true (1)
2   CASIVYEAADAGNASASA [HC266]  false (0)

-- ask Short answer needed: outcome of this test for CAEVVNSTWVAGNASASA [HC138] ?
-- reply false (0)
